# PROTOCOL DESCRIPTION: Brain penetration study in rat
# Format: in vivo
# CONDITION: brain and plasma, unbound brain-to-plasma drug concentration ratio
Threshold 0.8: Kp uu strictly smaller gives yes, otherwise no.

- MOLECULE SMILES: "Nc1ncc(CN2CCC(c3ccccn3)CC2)cn1"
  ANSWER LABEL: "no"
- MOLECULE SMILES: "Nc1ncc(CN2CCC(c3cncc(F)c3)CC2)cn1"
  ANSWER LABEL: "no"
- MOLECULE SMILES: "Nc1ncc(CN2CCC(c3cccnc3)CC2)cn1"
  ANSWER LABEL: "no"
- MOLECULE SMILES: "Cc1ncc(CN2CCC(c3ccccn3)CC2)c(N)n1"
  ANSWER LABEL: "no"
- MOLECULE SMILES: "Cc1ncc(CN2CCC(c3cncc(F)c3)CC2)cn1"
  ANSWER LABEL: "yes"

----------
# TESTED TARGET: Human dopamine D4 receptor (Homo sapiens, UniProt P21917)
# Sequence (P21917 whole entry): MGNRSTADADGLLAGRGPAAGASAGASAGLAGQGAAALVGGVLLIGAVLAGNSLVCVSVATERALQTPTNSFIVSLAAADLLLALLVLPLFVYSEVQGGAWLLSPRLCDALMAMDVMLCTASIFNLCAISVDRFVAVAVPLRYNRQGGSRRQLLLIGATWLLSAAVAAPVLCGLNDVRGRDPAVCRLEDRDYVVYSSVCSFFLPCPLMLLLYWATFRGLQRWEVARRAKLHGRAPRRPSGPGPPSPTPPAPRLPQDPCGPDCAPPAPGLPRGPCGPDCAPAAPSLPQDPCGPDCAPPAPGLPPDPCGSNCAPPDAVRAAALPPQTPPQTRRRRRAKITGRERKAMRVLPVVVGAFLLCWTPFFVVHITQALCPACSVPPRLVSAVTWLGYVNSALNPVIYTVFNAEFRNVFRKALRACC
# PROTOCOL DESCRIPTION: Agonistic/antagonistic activity in G protein dependent pathway (aequorin intracellular calcium luminescence), D4
# Format: cell-based
# Design: expressed in transfected cells; host or cells: CHO-K1 or HEK293 cells
# CONDITION: read-out: Maximal activity on each receptor (%): D4

- COMPOUND: "Nc1nc(C2CCCC2)ncc1CN1CC=C(c2cccnc2)CC1"
  Emax at 1 µM (%): 72
- COMPOUND: "Cc1ncc(CN2CCC(c3ccccn3)C(C)C2)c(N)n1 (centres unmarked)"
  Emax at 1 µM (%): 72
- COMPOUND: "Nc1ncc(CN2CCC(c3ccccn3)CC2)cn1"
  Emax at 1 µM (%): 82
- COMPOUND: "Cc1ccnc(C2CCN(Cc3cnc(C)nc3N)CC2)c1"
  Emax at 1 µM (%): 62
- COMPOUND: "CNc1nc(C)ncc1CN1CCC(c2cccnc2)CC1"
  Emax at 1 µM (%): 62

----------
# PROTOCOL DESCRIPTION: PK study in rat (bioavailability)
# Format: in vivo
# CONDITION: plasma, oral vs intravenous administration

- MOLECULE SMILES: "Cc1ncc(CN2CCC(c3ccccn3)CC2)c(C)n1"
  bioavailability, %: 27.6
- MOLECULE SMILES: "Nc1ncc(CN2CCC(c3cncc(F)c3)CC2)cn1"
  bioavailability, %: 92.2
- MOLECULE SMILES: "Nc1ncc(CN2CCC(c3cccnc3)CC2)cn1"
  bioavailability, %: 81.7
- MOLECULE SMILES: "Nc1ncc(CN2CCC(c3ccccn3)CC2)cn1"
  bioavailability, %: 67.2
- MOLECULE SMILES: "Cc1ncc(CN2CCC(c3cncc(F)c3)CC2)cn1"
  bioavailability, %: 60.1
- MOLECULE SMILES: "Cc1ncc(CN2CCC(c3cccnc3)CC2)c(C)n1"
  bioavailability, %: 21.6
- MOLECULE SMILES: "Cc1ncc(CN2CCC(c3ccccn3)CC2)c(N)n1"
  bioavailability, %: 16.8

----------
# TESTED TARGET: human adrenergic α1A receptor (Homo sapiens)
# Construct: expressed in transfected cells; host or cells: CHO-K1 or HEK293 cells
# Sequence (P35348 1-466): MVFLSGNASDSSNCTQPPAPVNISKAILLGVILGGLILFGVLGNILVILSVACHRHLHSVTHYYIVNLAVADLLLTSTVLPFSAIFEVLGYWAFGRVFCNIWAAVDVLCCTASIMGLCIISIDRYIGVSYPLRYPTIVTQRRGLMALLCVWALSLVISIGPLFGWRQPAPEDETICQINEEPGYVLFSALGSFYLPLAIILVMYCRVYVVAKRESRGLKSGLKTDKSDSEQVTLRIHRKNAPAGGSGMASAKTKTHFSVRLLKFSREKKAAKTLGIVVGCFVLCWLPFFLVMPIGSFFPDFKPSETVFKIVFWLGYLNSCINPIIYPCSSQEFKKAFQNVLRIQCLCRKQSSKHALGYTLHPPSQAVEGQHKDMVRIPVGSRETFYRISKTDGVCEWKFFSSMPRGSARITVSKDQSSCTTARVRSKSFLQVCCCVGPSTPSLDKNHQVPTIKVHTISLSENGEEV
# PROTOCOL DESCRIPTION: Agonistic/antagonistic activity in G protein dependent pathway (aequorin intracellular calcium luminescence), α1A
# Assay type: cell-based
# CONDITION: 0.1 μM; 10 μM adrenaline = 100%
REPORTED ENDPOINT: Maximal activity on each receptor (%): α1A

- MOLECULE SMILES: "Cc1ncc(CN2CCC(c3cncc(F)c3)CC2)cn1"
  RESULT VALUE: 0.4
- MOLECULE SMILES: "Cc1ncc(CN2CCC(c3ccccn3)CC2)c(N)n1"
  RESULT VALUE: 2.1
- MOLECULE SMILES: "Nc1ncc(CN2CCC(c3cccnc3)CC2)cn1"
  RESULT VALUE: 0.31
- MOLECULE SMILES: "Cc1ncc(CN2CCC(c3cccnc3)CC2)c(C)n1"
  RESULT VALUE: 0.03
- MOLECULE SMILES: "Nc1ncc(CN2CCC(c3cncc(F)c3)CC2)cn1"
  RESULT VALUE: 0.08
- MOLECULE SMILES: "Cc1ncc(CN2CCC(c3ccccn3)CC2)c(C)n1"
  RESULT VALUE: 0.04

----------
compounds and their reported inhibition at 1 µM
# TESTED TARGET: human adrenergic α1A receptor (Homo sapiens, UniProt P35348)
# Construct: expressed in transfected cells; host or cells: CHO-K1 or HEK293 cells
# PROTOCOL DESCRIPTION: Agonistic/antagonistic activity in G protein dependent pathway (aequorin intracellular calcium luminescence), α1A
# Format: cell-based
# CONDITION: 1 μM; against 10 μM endogenous ligand; read-out: Inhibitory activity on each receptor (%): α1A

- COMPOUND: "Cc1ncc(CN2CCC(c3cncc(F)c3)CC2)cn1 [Example 33]"
  inhibition at 1 µM: "-5.4%"
- COMPOUND: "Cc1ncc(CN2CCC(c3ccccn3)CC2)c(N)n1 [Example 5]"
  inhibition at 1 µM: "-1.7%"
- COMPOUND: "Cc1ncc(CN2CCC(c3cccnc3)CC2)c(C)n1 [Example 45]"
  inhibition at 1 µM: "-0.73%"
- COMPOUND: "Nc1ncc(CN2CCC(c3cccnc3)CC2)cn1 [Example 37]"
  inhibition at 1 µM: "-14%"
- COMPOUND: "Nc1ncc(CN2CCC(c3cncc(F)c3)CC2)cn1 [Example 46]"
  inhibition at 1 µM: "-17%"
- COMPOUND: "Cc1ncc(CN2CCC(c3ccccn3)CC2)c(C)n1 [Example 44]"
  inhibition at 1 µM: "2.6%"

----------
compounds and their reported Maximal activity on D4 receptor (%)
# TESTED TARGET: Human dopamine D4 receptor (Homo sapiens, UniProt P21917)
# PROTOCOL DESCRIPTION: G protein independent pathway: β-arrestin recruit ability (PathHunter β-galactosidase)
# Assay type: cell-based
# Set-up: expressed in transfected cells
# CONDITION: β-arrestin recruitment, 90 minutes; 10 μM dopamine = 100%

- MOLECULE SMILES: "Nc1ncc(CN2CCC(c3cccnc3)CC2)cn1"
  TESTED TARGET: "Human dopamine D4 receptor (Homo sapiens, UniProt P21917)"
  Maximal activity on D4 receptor (%): "9%"
- MOLECULE SMILES: "Cc1ncc(CN2CCC(c3cncc(F)c3)CC2)cn1"
  TESTED TARGET: "Human dopamine D4 receptor (Homo sapiens, UniProt P21917)"
  Maximal activity on D4 receptor (%): "21%"
- MOLECULE SMILES: "Cc1ncc(CN2CCC(c3ccccn3)CC2)c(N)n1"
  TESTED TARGET: "Human dopamine D4 receptor (Homo sapiens, UniProt P21917)"
  Maximal activity on D4 receptor (%): "11%"
- MOLECULE SMILES: "Cc1ncc(CN2CCC(c3ccccn3)CC2)c(C)n1"
  TESTED TARGET: "Human dopamine D4 receptor (Homo sapiens, UniProt P21917)"
  Maximal activity on D4 receptor (%): "6%"
- MOLECULE SMILES: "Cc1ncc(CN2CCC(c3cccnc3)CC2)c(C)n1"
  TESTED TARGET: "Human dopamine D4 receptor (Homo sapiens, UniProt P21917)"
  Maximal activity on D4 receptor (%): "9%"
- MOLECULE SMILES: "Nc1ncc(CN2CCC(c3cncc(F)c3)CC2)cn1"
  TESTED TARGET: "Human dopamine D4 receptor (Homo sapiens, UniProt P21917)"
  Maximal activity on D4 receptor (%): "11%"

----------
# TESTED TARGET: Human dopamine D4 receptor (Homo sapiens)
# PROTOCOL DESCRIPTION: Agonistic/antagonistic activity in G protein dependent pathway (aequorin intracellular calcium luminescence), D4
# Assay type: cell-based
# Design: expressed in transfected cells; host or cells: CHO-K1 or HEK293 cells
# CONDITION: 0.1 μM; against 10 μM endogenous ligand; read-out: Inhibitory activity on each receptor (%): D4
molecules and their reported inhibition at 0.1 µM
REPORTED ENDPOINT: inhibition at 0.1 µM (%)

- MOLECULE SMILES: "Cc1ncc(CN2CCC(c3cncc(F)c3)CC2)cn1"
  RESULT VALUE: 76
- MOLECULE SMILES: "Cc1ncc(CN2CCC(c3ccccn3)CC2)c(N)n1"
  RESULT VALUE: 78
- MOLECULE SMILES: "Cc1ncc(CN2CCC(c3ccccn3)CC2)c(C)n1"
  RESULT VALUE: 58
- MOLECULE SMILES: "Nc1ncc(CN2CCC(c3cccnc3)CC2)cn1"
  RESULT VALUE: 64
- MOLECULE SMILES: "Cc1ncc(CN2CCC(c3cccnc3)CC2)c(C)n1"
  RESULT VALUE: 72
- MOLECULE SMILES: "Nc1ncc(CN2CCC(c3cncc(F)c3)CC2)cn1"
  RESULT VALUE: 61
